Biological target: Cytochrome P450 2C19 (Homo sapiens) (UniProt P33261)
Sequence (P33261 whole entry, looked up): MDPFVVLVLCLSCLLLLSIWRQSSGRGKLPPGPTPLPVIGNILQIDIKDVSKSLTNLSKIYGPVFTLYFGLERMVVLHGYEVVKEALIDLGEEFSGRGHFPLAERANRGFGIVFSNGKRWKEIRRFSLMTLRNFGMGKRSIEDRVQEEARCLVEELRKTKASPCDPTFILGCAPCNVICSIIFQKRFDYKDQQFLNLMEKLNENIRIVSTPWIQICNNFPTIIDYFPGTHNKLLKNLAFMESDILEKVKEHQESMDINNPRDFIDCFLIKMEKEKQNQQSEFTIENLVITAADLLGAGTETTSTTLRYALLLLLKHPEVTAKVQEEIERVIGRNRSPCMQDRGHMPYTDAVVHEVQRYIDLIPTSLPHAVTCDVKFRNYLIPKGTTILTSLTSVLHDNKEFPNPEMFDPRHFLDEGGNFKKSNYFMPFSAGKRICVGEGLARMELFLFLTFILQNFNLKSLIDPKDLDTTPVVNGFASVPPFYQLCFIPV
Assay: Cytochrome panel assay with activity outcomes
Conditions: recombinant CYP, pro-luciferin dealkylation, luminescence, p450-cyp2c19; series mostly up to 57.1 µM
Out of some 16,000 compounds screened, about 5,800 (36%) were called active. Another 23% or so got no clear call; they are omitted. Calls follow the shape of the dose curve; as a rule, active = well fitted curve in the direction sought with a large enough effect; inconclusive = small, poorly fitted or top-dose-only effect, or effect the other way; inactive = no such curve, though single readings can be large or run the other way. This is one part of the list.
API: response.call in YES = active, NO = inactive

Consider the following illustrative entries.
>  <compound>
CC(=O)NCCNc1nc(-c2ccccc2C(F)(F)F)nc2ccccc12

>  <discrete-label>
NO

$$$$
>  <compound>
N#CC(=C(/N)Sc1ccccc1N)/C(C#N)=C(/N)Sc1ccccc1N

>  <discrete-label>
NO

$$$$
>  <compound>
CCCOc1ccc(N2C(=O)CC(S/C(N)=N/N=C(\C)c3cccs3)C2=O)cc1 (stereo unspecified)

>  <discrete-label>
YES

$$$$

Shifting focus to the compound that follows.
GET /call?item= CCOc1cccc(CNCCNC(=O)c2nonc2N)c1 returns the recorded outcome of this test.
YES
